# RUN PARAMETERS: cynomolgus monkey, in vivo, iv, 3 mg/kg, AUCinf, macaque, 3 mg/kg IV infusion, Mean
No end group written: not given here.
MEASURED PROPERTY: AUC(0-inf) (ng·h/mL)

RRWVRRVRRVWRRVVRVVRRWVRR-NH2 [SEQ ID NO: 1] : 7710

====

# RUN PARAMETERS: mouse, in vivo, iv, 15 mg/kg
No end group written: not given here.
MEASURED PROPERTY: AUC(0-t) (ng·h/mL)

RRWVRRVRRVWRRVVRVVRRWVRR-NH2 [SEQ ID NO: 1] : 53600

====

# RUN PARAMETERS: mouse, in vivo, iv, 3 mg/kg
No end group written: not given here.
MEASURED PROPERTY: Cmax (ng/mL)

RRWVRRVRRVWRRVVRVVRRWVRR-NH2 [SEQ ID NO: 1] : 16600

====

# RUN PARAMETERS: cynomolgus monkey, in vivo, iv, 1 mg/kg, Vss, macaque, 1 mg/kg IV infusion, Mean
No end group written: not given here.
MEASURED PROPERTY: Vd

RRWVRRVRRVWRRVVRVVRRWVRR-NH2 [SEQ ID NO: 1] : 1.38 L/kg

====

# RUN PARAMETERS: mouse, in vivo, iv, 3 mg/kg
No end group written: not given here.
MEASURED PROPERTY: MRT last

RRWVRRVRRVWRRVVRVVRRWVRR-NH2 [SEQ ID NO: 1] : ~30 min

====

# RUN PARAMETERS: cynomolgus monkey, in vivo, iv, 1 mg/kg, AUCinf, macaque, 1 mg/kg IV infusion, Mean
No end group written: not given here.
MEASURED PROPERTY: AUC(0-inf) (ng·h/mL)

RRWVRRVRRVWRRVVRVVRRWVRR-NH2 [SEQ ID NO: 1] : 1170

====

# RUN PARAMETERS: cynomolgus monkey, in vivo, iv, 3 mg/kg, Vss, macaque, 3 mg/kg IV infusion, Mean
No end group written: not given here.
MEASURED PROPERTY: Vd (L/kg)

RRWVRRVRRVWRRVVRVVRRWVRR-NH2 [SEQ ID NO: 1] : 1.29

====

# RUN PARAMETERS: cynomolgus monkey, in vivo, iv, 10 mg/kg, Vss, macaque, 10 mg/kg IV infusion, Mean
No end group written: not given here.
MEASURED PROPERTY: Vd

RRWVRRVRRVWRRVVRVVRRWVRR-NH2 [SEQ ID NO: 1] : 1.26 L/kg

====

# RUN PARAMETERS: cynomolgus monkey, in vivo, iv, 3 mg/kg, AUClast, macaque, 3 mg/kg IV infusion, Mean
No end group written: not given here.
MEASURED PROPERTY: AUC(0-t) (ng·h/mL)

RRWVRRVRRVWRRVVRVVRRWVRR-NH2 [SEQ ID NO: 1] : 7580

====

# RUN PARAMETERS: mouse, in vivo, iv, 3 mg/kg
No end group written: not given here.
MEASURED PROPERTY: C0 (ng/mL)

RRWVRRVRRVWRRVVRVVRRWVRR-NH2 [SEQ ID NO: 1] : 26000

====

# Tested on: Klebsiella pneumoniae isolates (n = 101)
# METHOD NOTES: Broth microdilution MIC, clinical isolate panel
# Format: cell-based
# RUN PARAMETERS: Klebsiella pneumoniae (n = 101)
# Method: Comparator antibiotics were supplied by Micromyx, and stock solutions were prepared on the first day of testing using solvents recommended by CLSI (1). […] The test organisms evaluated in this study consisted of clinical isolates from the Micromyx Repository and reference isolates from the American Type Culture Collection (ATCC; Manassas, Va.). […] MIC values were determined using a broth microdilution procedure described by CLSI (1, 3). […]
MEASURED PROPERTY: % R (percent of isolates resistant, clinical breakpoints)

C[C@H]1COc2c(N3CCN(C)CC3)c(F)cc3c(=O)c(C(=O)O)cn1c23 : over 60%
NC[C@H]1O[C@H](O[C@H]2[C@H](O)[C@@H](O[C@H]3O[C@H](CO)[C@@H](O)[C@H](N)[C@H]3O)[C@H](N)C[C@@H]2N)[C@H](N)C[C@@H]1O : over 60%
